A collection of molecules and their measured Number of Surviving Mice
Assay details: Life-span-increasing effect on irradiation of a lethal dose of radiation
Format: in vivo, mouse (BDF1)
Setup conditions: day 20; 10 mice/group; 9 Gy X-ray; 0.1 mg/kg i.v. days 0, 4, 8; controls per series 4, 5, 1, 2, 3, 0
State the answer as a number, implicitly in mice.

{"Molecule": "CCCCCCCCCCCCCCCCCCCCCC[C@H](O)C(=O)N[C@@H](CO[C@H]1O[C@H](CO)[C@H](O)[C@H](O)[C@H]1O)[C@H](O)[C@H](O)CCCCCCCCCCCC(C)C [Compound 30]", "Unit symbol": "mice", "Quantitative result": 10}

Query: If you can, please state the reported Number of Surviving Mice value of CCCCCCCCCCCCCCCCCCCCCC[C@@H](O)C(=O)N[C@@H](CO[C@H]1O[C@H](CO)[C@H](O)[C@H](O)[C@H]1O)[C@H](O)[C@H](O)CCCCCCC [Compound 24] .
Response: 9

Query: If you can, please state the reported Number of Surviving Mice value of CCCCCCCCCCCCCCCCCCCCCCCC(=O)N[C@@H](CO[C@H]1O[C@H](CO)[C@H](O)[C@H](O)[C@H]1O)[C@H](O)[C@H](O)CCCCCCCCCCCC(C)C [Compound 31] .
Response: 9
